target: UniProtKB P08684; assay: CYP3A4 inhibition, probe/drug metabolism in human liver microsomes; settings: human, human liver microsomes, pH 7.4, probe midazolam 5 μM, Residual activity (%) CYP3A4, HLM 0.5 mg/mL, midazolam 5 μM, 30 min
Sequence (P08684 whole entry): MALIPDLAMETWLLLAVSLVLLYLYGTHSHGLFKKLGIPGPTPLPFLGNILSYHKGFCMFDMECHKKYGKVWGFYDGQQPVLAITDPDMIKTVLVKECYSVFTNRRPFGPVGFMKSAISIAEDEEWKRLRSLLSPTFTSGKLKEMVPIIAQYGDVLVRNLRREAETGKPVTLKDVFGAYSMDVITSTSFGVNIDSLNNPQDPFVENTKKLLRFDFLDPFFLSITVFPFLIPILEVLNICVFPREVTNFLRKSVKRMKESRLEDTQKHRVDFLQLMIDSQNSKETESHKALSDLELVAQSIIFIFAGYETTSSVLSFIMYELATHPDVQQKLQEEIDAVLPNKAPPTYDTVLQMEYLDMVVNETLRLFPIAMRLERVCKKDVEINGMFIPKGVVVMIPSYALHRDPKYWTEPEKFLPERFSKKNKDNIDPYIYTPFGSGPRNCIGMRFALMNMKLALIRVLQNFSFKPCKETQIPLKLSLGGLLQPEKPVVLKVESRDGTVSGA
Listed next: entries and their corresponding activity at 30 min.
# number only, unit % dropped from output

compound="CC(CC(=O)CC(C)C1CC(O)C2(C)C3=C(C(=O)CC12C)C1(C)CCC(O)C(C)(CO)C1CC3=O)C(=O)O (stereo not drawn)" measured_target="UniProtKB P08684" reported_value=67.6

activity at 30 min for CC1(C)CCC2(C(=O)O)CCC3(C)C(=C2C1)C=CC1C2(C)CCC(O)C(C)(C)C2CCC13C (stereo not drawn) is 55.4

activity at 30 min for CC(=O)OC1C(=O)C2=C(C(O)CC3C2(C)CCC(O)C3(C)C)C2(C)C(=O)CC(C(C)=CC(=O)CC(C)C(=O)O)C12C (stereo not drawn) is 94.6

activity at 30 min for CC(=CC(=O)CC(C)C(=O)O)C1CC(=O)C2(C)C3=C(C(=O)CC12C)C1(C)CCC(=O)C(C)(C)C1CC3O (stereo not drawn) is 94.1

activity at 30 min for CC(CC(=O)CC(C)C1CC(=O)C2(C)C3=C(C(=O)CC12C)C1(C)CCC(O)C(C)(CO)C1CC3O)C(=O)O (stereo not drawn) is 79.6

activity at 30 min for CC(CC(=O)CC(C)C1CC(=O)C2(C)C3=C(C(=O)C(O)C12C)C1(C)CCC(=O)C(C)(CO)C1CC3O)C(=O)O (stereo not drawn) is 60.3

activity at 30 min for CC(=O)OC1C(=O)C2=C(C(=O)CC3C(C)(C)C(=O)CCC23C)C2(C)C(=O)CC(C(C)CC(O)C=C(C)C(=O)O)C12C (stereo not drawn) is 104

activity at 30 min for CC(CCC(O)C(C)(O)CO)C1CCC2(C)C3=C(C(=O)CC12C)C1(C)CCC(=O)C(C)(C)C1CC3 (stereo not drawn) is 30.1

activity at 30 min for CC(=O)OC1C(=O)C2=C(C(=O)CC3C2(C)CCC(O)C3(C)C)C2(C)C(=O)CC(C3(C)CCC(=O)O3)C12C (stereo not drawn) is 82.8
